Numbers sourced from patent US20060039869A1.

protocol summary: clinical
measurement conditions: both, human, plasma, intramuscular, 2.5 mg
measurement name: bioavailability (%)
Note: unit % is implicit; provide only the numeric part.

Reported bioavailability, compound O=C(CCCN1CCC(O)(c2ccc(Cl)cc2)CC1)c1ccc(F)cc1 [haloperidol lactate, haloperidol] : ____ 134

----------
protocol summary: clinical
measurement conditions: both, human, plasma, iv, 2.5 mg
measurement name: AUC(0-t)
Answers without a unit are incomplete; give the number and then its unit.

Could you tell me which AUC(0-t) is on file for O=C(CCCN1CCC(O)(c2ccc(Cl)cc2)CC1)c1ccc(F)cc1 [haloperidol lactate, haloperidol] ? 50.8 ng·h/mL

----------
protocol summary: clinical
measurement conditions: both, human, plasma, other: intranasal, 2.5 mg
measurement name: AUC(0-t) (ng·h/mL)
Output spec: scalar in ng·h/mL, unitless text.

# AUC(0-t) lookup, item O=C(CCCN1CCC(O)(c2ccc(Cl)cc2)CC1)c1ccc(F)cc1 [haloperidol lactate, haloperidol] 31.7
